Biological target: T1, human HER-2 extracellular domain (HER-2 ECD) (human, UniProt P04626 23-646)
T1 construct: range 23-646; also called erbB2; HER2 protein
Test: competitive Fab-phage ELISA
Listing: pIC50 of selected binders
# reply with the number alone; pIC50 is -log10 of concentration in mol/L

B9 (Fab, V domains shown) VH: EVQLVESGGGLVQPGGSLRLSCAASGFSIYYSYIHWVRQAPGKGLEWVASIYPSSGYTSYADSVKGRFTISADTSKNTAYLQMNSLRAEDTAVYYCARWWSSAFDYWGQGTLVTVSS VL: DIQMTQSPSSLSASVGDRVTITCRASQDVNTAVAWYQQKPGKAPKLLIYSASSLYSGVPSRFSGSRSGTDFTLTISSLQPEDFATYYCQQSYYSPSTFGQGTKVEIK	9.14

Now turn to the next binder.
# pIC50 (binder: B22 (Fab, V domains shown) VH: EVQLVESGGGLVQPGGSLRLSCAASGFSISSSYIHWVRQAPGKGLEWVASIYPYSGYTSYADSVKGRFTISADTSKNTAYLQMNSLRAEDTAVYYCARWWSSAMDYWGQGTLVTVSS VL: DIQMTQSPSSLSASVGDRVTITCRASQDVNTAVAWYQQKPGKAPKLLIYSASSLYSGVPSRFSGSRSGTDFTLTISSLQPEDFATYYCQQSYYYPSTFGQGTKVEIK ) is 8.57
